Data origin: PubChem BioAssay AID1159580

assay: chemical genetic growth profiling, strain panel (AID 1159580);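 further: tested at 20 µM; growth read once vehicle control cultures reached saturation at 30 °C; 1 = growth at the plate median or of vehicle wells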; settings: S. cerevisiae deletion strains, growth OD, locus YHR087W, strain rtc3, stronger effect = lower value
Hit rate of the full screen: of about 5,500 compounds, about 2,000 (36%) were called active. Not shown: some 18% with an inconclusive outcome. Some of the results follow.
Mark condition met only when normalized growth stays strictly below 1. Values equal to the cut-off are condition not met.

O=C(Nc1ccc(Br)cc1Cl)C(Cl)(Cl)Cl = condition met

Determine whether this molecule shows normalized growth lower than 1 (ties excluded): CSC(=CC(=O)c1ccc(Cl)cc1)SC
condition met

Just wondering, is normalized growth of C=C1SC(=Nc2cccc(OC)c2)N(C(=O)C(c2ccccc2)C2CCCC2)C1(C)C (stereo not drawn) below 1?
condition met

Determine if O=C(O/N=C\c1ccc2c(c1)OCO2)c1ccccc1Br shows normalized growth strictly lower than 1.
condition met

is_below(normalized growth, 1) for FC(F)(F)c1cnc(N2CCN(C(=S)Nc3ccccc3)CC2)c(Cl)c1 ?
condition not met

Field: below-cutoff. Rule: recorded normalized growth strictly less than 1. Subject: O=[N+]([O-])c1cnc(Sc2n[nH]c(-c3cccs3)n2)s1
condition met

----------
test: chemical genetic growth profiling, strain panel (AID 1159580);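 further: tested at 20 µM; growth read once vehicle control cultures reached saturation at 30 °C; 1 = growth at the plate median or of vehicle wells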; conditions: S. cerevisiae deletion strains, growth OD, locus YNL183C, strain NPR1
Hit rate of the full screen: of about 5,500 compounds, about 2,000 (36%) were called active. Roughly 18% stayed inconclusive and do not appear here. No stated cut-off is given here; in the data, active means normalized growth mostly below about 0.91 (no sharp cut-off); inconclusive means no clear call, values can overlap the other calls; inactive means mostly above about 0.92. The list shows a part of the results.
Return exactly one item of active, inactive

Just curious, what result did COC(=O)c1cnn(-c2c(Cl)cccc2Cl)c1C=C(C#N)C#N get here?
inactive

Per the assay record, what outcome was assigned to N#CC(O[C@@H]1O[C@H](CO[C@@H]2O[C@H](CO)[C@@H](O)[C@H](O)[C@H]2O)[C@@H](O)[C@H](O)[C@H]1O)c1ccccc1 (stereo partly specified) ?
inactive

// param item: CC(C)(Oc1ccc(CCNC(=O)c2ccc(Cl)cc2)cc1)C(=O)O ; yields the recorded call
inactive

Please share the test call associated with COc1ccc2nc3ccccc3c(N)c2c1 .
active

For this compound, state the assay outcome: Nc1c2ccccc2nc2ccccc12
active

Test call, this compound: O=C(O)CC(O)(CC(=O)O)C(=O)O
inactive

Record request — test call for CCCCCCCCCCCCCCCCC(C(=O)O)C(O)(CC(=O)O)C(=O)O (stereo unspecified)
active

Test call for this compound, please: CC1(C)CC[C@]2(C(=O)O)CC[C@]3(C)C(=CCC4[C@@]5(C)CC[C@H](O)[C@@](C)(CO)C5CC[C@]43C)C2C1 (stereo partly specified)
inactive

Lab log entry: CSc1n[nH]c(-c2cc(C(F)(F)F)cc(C(F)(F)F)c2)n1 — outcome as called in the assay?
inactive

Tell me the assay call for Nc1ccc(S(=O)(=O)Nc2ccnn2-c2ccccc2)cc1 please.
inactive

I would be grateful if you could indicate the recorded call for N#Cc1c2ccccc2nc2ccccc12 .
inactive

----------
assay: chemical genetic growth profiling, strain panel (AID 1159580);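 further: tested at 20 µM; growth read once vehicle control cultures reached saturation at 30 °C; 1 = growth at the plate median or of vehicle wells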; details: S. cerevisiae deletion strains, growth OD, locus YPR163C, strain tif3, stronger effect = lower value
Screen size: about 5,500 compounds; about 2,000 (36%) were called active. Roughly 18% stayed inconclusive and do not appear here. The list shows a part of the results.
readout name: normalized growth
Reply: number alone, nothing else.

Worked examples follow.
CC(=O)/C=C\[C@@H]1[C@@]2(C)CCCC(C)(C)C2CC[C@@]1(C)O (stereo not given in full) = 0.973
COc1cc(C(=O)O[C@H]2CC[C@@]3(C)[C@@H]4CC[C@H]5[C@]6(O)C[C@H](O)[C@@]7(O)[C@@H](CN8C[C@@H](C)CC[C@H]8[C@@]7(C)O)[C@]6(O)C[C@@]53O[C@]24O)cc(OC)c1OC = 1.01
CC(C)=CCCC1(C)C=Cc2c(O)c3c(c(CC=C(C)C)c2O1)OC12C(CC4CC1C(C)(C)OC2(C/C=C(/C)C(=O)O)C4O)C3=O (stereo not given) = 0.967

Any idea what its normalized growth is? The molecule is NNc1nncc2ccccc12
1.01
